Entries annotated with measured IC50
target: α4β7 integrin (Homo sapiens (Human), UniProt P13612+P26010); experiment: Integrin Adhesion Assay: Protocol 4 (MAdCAM-coated plate, RPMI-8866 cells with stable LOF mutation of the ITGB1 gene); assay type: cell-based; settings: RPMI-8866 cells with stable LOF mutation of the ITGB1 gene; read-out: Mean IC50 α4β7 KO^a
Sequence (P13612 34-1032): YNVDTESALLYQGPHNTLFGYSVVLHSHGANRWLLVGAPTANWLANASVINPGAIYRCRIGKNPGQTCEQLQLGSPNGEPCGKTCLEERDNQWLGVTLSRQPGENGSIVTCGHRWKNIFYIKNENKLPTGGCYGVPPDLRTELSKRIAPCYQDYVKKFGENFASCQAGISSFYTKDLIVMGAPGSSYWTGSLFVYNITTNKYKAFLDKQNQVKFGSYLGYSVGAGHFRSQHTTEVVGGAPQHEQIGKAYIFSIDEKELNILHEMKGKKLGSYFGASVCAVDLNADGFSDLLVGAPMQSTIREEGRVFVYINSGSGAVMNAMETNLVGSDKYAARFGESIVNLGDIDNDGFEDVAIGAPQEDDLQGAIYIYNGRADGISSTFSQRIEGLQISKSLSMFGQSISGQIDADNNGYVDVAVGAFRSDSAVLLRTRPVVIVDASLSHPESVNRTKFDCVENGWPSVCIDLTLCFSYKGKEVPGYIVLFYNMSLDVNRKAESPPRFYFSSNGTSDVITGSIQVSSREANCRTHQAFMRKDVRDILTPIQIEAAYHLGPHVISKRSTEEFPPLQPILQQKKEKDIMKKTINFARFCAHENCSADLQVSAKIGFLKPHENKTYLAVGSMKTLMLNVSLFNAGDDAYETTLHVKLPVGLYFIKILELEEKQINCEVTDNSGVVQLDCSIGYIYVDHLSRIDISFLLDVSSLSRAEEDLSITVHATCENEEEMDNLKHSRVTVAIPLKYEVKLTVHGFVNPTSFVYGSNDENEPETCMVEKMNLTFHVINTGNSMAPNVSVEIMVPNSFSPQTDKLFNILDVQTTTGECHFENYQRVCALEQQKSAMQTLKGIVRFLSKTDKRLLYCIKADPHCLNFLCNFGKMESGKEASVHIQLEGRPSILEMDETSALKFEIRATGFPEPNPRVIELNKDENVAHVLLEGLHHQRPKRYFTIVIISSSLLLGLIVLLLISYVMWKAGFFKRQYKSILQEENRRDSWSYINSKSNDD
Sequence (P26010 20-798): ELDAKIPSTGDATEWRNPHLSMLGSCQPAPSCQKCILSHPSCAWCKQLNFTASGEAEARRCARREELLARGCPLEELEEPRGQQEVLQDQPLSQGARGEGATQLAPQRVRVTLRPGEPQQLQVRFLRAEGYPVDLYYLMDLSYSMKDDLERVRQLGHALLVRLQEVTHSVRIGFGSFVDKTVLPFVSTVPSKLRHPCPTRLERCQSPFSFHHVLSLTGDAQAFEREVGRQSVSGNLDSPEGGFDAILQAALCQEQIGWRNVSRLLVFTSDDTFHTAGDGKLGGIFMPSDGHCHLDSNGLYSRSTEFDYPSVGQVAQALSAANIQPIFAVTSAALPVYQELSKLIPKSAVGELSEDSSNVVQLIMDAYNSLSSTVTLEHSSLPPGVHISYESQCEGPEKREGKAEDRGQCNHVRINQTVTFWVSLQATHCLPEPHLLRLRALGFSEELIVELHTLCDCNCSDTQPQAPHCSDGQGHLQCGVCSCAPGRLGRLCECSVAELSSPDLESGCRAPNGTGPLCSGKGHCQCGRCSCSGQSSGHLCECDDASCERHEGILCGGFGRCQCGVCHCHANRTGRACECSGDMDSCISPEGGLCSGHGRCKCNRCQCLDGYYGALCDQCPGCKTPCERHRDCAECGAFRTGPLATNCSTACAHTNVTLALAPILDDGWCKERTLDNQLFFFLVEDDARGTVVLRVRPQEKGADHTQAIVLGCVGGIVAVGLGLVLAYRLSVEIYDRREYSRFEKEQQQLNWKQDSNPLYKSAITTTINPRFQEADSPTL
Metric Name: IC50

Molecule: COc1ccc(CN(C)C)c(OC)c1-c1cccc2c(C[C@H](NC(=O)c3c(C)cc(C(F)(F)F)cc3F)C(=O)O)cccc12
Target Or Test System: α4β7 integrin (Homo sapiens (Human), UniProt P13612+P26010)
Measured: 10 to 100 nM
//
Molecule: COc1ccc(CN(C)C)nc1-c1cccc2c(C[C@H](NC(=O)c3c(C)cccc3F)C(=O)O)cccc12
Target Or Test System: α4β7 integrin (Homo sapiens (Human), UniProt P13612+P26010)
Measured: < 10 nM
//
Molecule: Cn1c(=O)c(-c2cccc3c(C[C@H](NC(=O)c4c(F)cccc4CN4CCC(C)(C)C4)C(=O)O)cccc23)c(C(F)(F)F)c2ccccc21
Target Or Test System: α4β7 integrin (Homo sapiens (Human), UniProt P13612+P26010)
Measured: 10 to 100 nM
//
Molecule: Cn1c(=O)c(-c2cccc3c(C[C@H](NC(=O)C4(C)CCC5(CCOCC5)CC4)C(=O)O)cccc23)c(C(F)(F)F)c2ccccc21
Target Or Test System: α4β7 integrin (Homo sapiens (Human), UniProt P13612+P26010)
Measured: 10 to 100 nM
//
Molecule: CN(C)c1ccc2c(c1)c(C(F)(F)F)c(-c1cccc3c(C[C@H](NC(=O)[C@]4(C)CC[C@@H](N5CCC(F)(F)CC5)CC4)C(=O)O)cccc13)c(=O)n2C
Target Or Test System: α4β7 integrin (Homo sapiens (Human), UniProt P13612+P26010)
Measured: 100 to 1000 nM
//
Molecule: Cn1c(=O)c(-c2cccc3c(C[C@H](NC(=O)c4c(F)cc(C5CCNCC5)cc4F)C(=O)O)cccc23)c(C(F)(F)F)c2ccccc21
Target Or Test System: α4β7 integrin (Homo sapiens (Human), UniProt P13612+P26010)
Measured: 100 to 1000 nM
